Where do these numbers come from? They come from PubChem BioAssay AID1159580.

Items are presented alongside their recorded normalized growth.
Assay: chemical genetic growth profiling, strain panel (AID 1159580);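 also: tested at 20 µM; growth read once vehicle control cultures reached saturation at 30 °C; 1 = growth at the plate median or of vehicle wells; lower values mean less growth of the strain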
Settings: S. cerevisiae deletion strains, growth OD, locus YAL026C, strain drs2, active compounds read low
About 2,000 (36%) of roughly 5,500 compounds were called active. Roughly 18% stayed inconclusive and do not appear here. Some of the results follow.

O=C(NC(=O)c1ccccc1Cl)Nc1ccc(OC(F)(F)F)cc1: 1.02 (inactive)
CC(=O)Oc1cc(OC(C)=O)c2c(c1)O[C@H](c1ccc(OC(C)=O)c(OC(C)=O)c1)[C@H](OC(C)=O)C2: 1.01 (inactive)
Nc1ncn[nH]1: 1.02 (inactive)
O=C(Oc1cc(O)cc2c1C[C@@H](OC(=O)c1cc(O)c(O)c(O)c1)[C@@H](c1cc(O)c(O)c(O)c1)O2)c1cc(O)c(O)c(O)c1: 0.988 (inactive)

Attention now shifts to the item below.
Prompt line: For COC(=O)/C=C/C(C)=C/C=C/C(C)=C/C=C/C=C(C)/C=C/C=C(C)/C=C/C(=O)O , what is its reported normalized growth?
Response line: 1.02 (inactive)

* * *

Assay: chemical genetic growth profiling, strain panel (AID 1159580)
Conditions: S. cerevisiae deletion strains, growth OD, locus YBR009C, strain hhf1, active compounds read low
Screen size: about 5,500 compounds; about 2,000 (36%) were called active. Another 18% or so got no clear call; they are omitted. Some of the results follow.
Measured property: normalized growth
Lab note: record the figure alone, no unit after it.

Clc1ccc(C(c2ccc(Cl)cc2)C(Cl)(Cl)Cl)cc1: 0.998
C=C[C@@](C)(O)CCC1C(=C)C[C@H](O)C2C(C)(C)CCCC12C (stereo not given in full): 0.986
NS(=O)(=O)c1cc2c(cc1Cl)NC=NS2(=O)=O: 0.983
CN1CCC(OC(c2ccccc2)c2ccccc2)CC1: 0.983
C=C[C@@](C)(O)CCC1C(=C)CCC2[C@@](C)(CO)CCC[C@]12C (stereo not given in full): 0.925
CC[C@@H]1C=C/C=C/C[C@H](C)[C@@H](O)[C@](C)(O)C(=O)[C@H](C)[C@@H](O)[C@H](C)C(=O)[C@H](C)[C@@H](O)[C@H](C)/C=C/C(=O)O[C@H]2[C@@H](C)[C@@H](CC1)O[C@@]1(CC[C@@H](C)[C@@H](C[C@H](C)O)O1)[C@@H]2C: 0.985
Cc1ccccc1C(OCCN(C)C)c1ccccc1 (stereo not given): 0.996
CC1(C)S[C@@H]2[C@H](NC(=O)[C@H](N)c3ccccc3)C(=O)N2[C@H]1C(=O)O: 1

Prompt line: For O=C(c1ccc(OCCN2CCCCC2)cc1)c1c(-c2ccc(O)cc2)sc2cc(O)ccc12 , what is its reported normalized growth?
Response line: 1

Prompt line: Next compound up: O=C1C(Cl)=C(Cl)C(=O)C(Cl)=C1Cl
Response line: 0.843

Prompt line: Next compound up: CC[C@@H](C(=O)C(C)[C@@H](O)[C@H](C)CCc1ccc(C)c(O)c1C(=O)O)C1OC(CC)(C2CC[C@](O)(CC)[C@H](C)O2)C[C@@H]1C (stereo not given in full)
Response line: 1.01

Prompt line: Next compound up: COc1ccc(OC)c(C(O)CNC(=O)CN)c1 (stereo not given)
Response line: 1

Prompt line: Next compound up: C=C1C2CC[C@@]3(C)[C@H](c4ccoc4)OC(=O)C[C@]13O[C@H]1CC(=O)C(C)(C)[C@H](C(OC(C)=O)C(=O)OC)[C@@]21C (stereo not given in full)
Response line: 1.02

* * *

Assay: chemical genetic growth profiling, strain panel (AID 1159580);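 also: tested at 20 µM; growth read once vehicle control cultures reached saturation at 30 °C; 1 = growth at the plate median or of vehicle wells; lower values mean less growth of the strain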
Conditions: S. cerevisiae deletion strains, growth OD, locus YBR229C, strain ROT2, active compounds read low
Hit rate of the full screen: of about 5,500 compounds, about 2,000 (36%) were called active. About 18% were inconclusive and are not listed. The list shows a part of the results.
Measured property: normalized growth
Lab note: record the figure alone, no unit after it.

The following molecules have reported results that may help.
C[C@@H]1CC(Cl)CC[C@H]1C(=O)OC(C)(C)C (some centres undefined): 0.992
COC(=O)/C=C/C(C)=C/C=C/C(C)=C/C=C/C=C(C)/C=C/C=C(C)/C=C/C(=O)O: 1.02
CC1COc2c(N3CCN(C)CC3)c(F)cc3c(=O)c(C(=O)O)cn1c23 (centres undefined): 1.01
O=C(NNC(=S)Nc1cccc(Cl)c1)c1ccncc1: 0.996
CC1(C)S[C@@H]2[C@H](NC(=O)[C@H](N)c3ccccc3)C(=O)N2[C@H]1C(=O)O: 1.01
CC(C)(C)S(=O)(=O)/C(C#N)=C/c1ccc(F)cc1F: 0.999
C[C@]12CCC(=O)C=C1C=CC1C2CC[C@@]2(C)C1CC[C@@]21CCC(=O)O1 (some centres undefined): 0.979
CN(C)CCN(Cc1ccccc1)c1ccccn1: 1.01
CN(C)CCN(Cc1cccs1)c1ccccn1: 1
COc1c(N2CCNC(C)C2)c(F)cc2c(=O)c(C(=O)O)cn(C3CC3)c12 (centres undefined): 1.01

Prompt line: For O=C(O)c1cncc(C#Cc2ccccc2)c1 , what is its reported normalized growth?
Response line: 0.976

Prompt line: Next molecule up: COC(=O)c1ccc(Cl)cc1NS(=O)(=O)c1ccc(OC)c(OC)c1
Response line: 0.976

Prompt line: Next molecule up: CCC[C@H](N[C@@H](C)C(=O)N1[C@H](C(=O)O)C[C@@H]2CCCC[C@@H]21)C(=O)OCC
Response line: 1

Prompt line: Next molecule up: CCn1cc(C(=O)O)c(=O)c2cc(F)c(N3CCNC(C)C3)c(F)c21 (centres undefined)
Response line: 1

* * *

Assay: chemical genetic growth profiling, strain panel (AID 1159580);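 also: tested at 20 µM; growth read once vehicle control cultures reached saturation at 30 °C; 1 = growth at the plate median or of vehicle wells; lower values mean less growth of the strain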
Conditions: S. cerevisiae deletion strains, growth OD, locus YER110C, active compounds read low
The whole screen tested about 5,500 compounds, of which about 2,000 (36%) were called active. Roughly 18% stayed inconclusive and do not appear here. The list shows a part of the results.
Measured property: normalized growth
Lab note: record the figure alone, no unit after it.

The following molecules have reported results that may help.
CCC(C)C(=O)O[C@@H]1C[C@@]2(C)[C@H](c3ccoc3)OC(=O)CC23OC2(C)OC34[C@H](OC(=O)C(C)C)[C@@]3(O)[C@@H](OC(=O)C5(C)OC5C)[C@@]5(C)C[C@]3(O)[C@@](C)([C@H]5CC(=O)OC)C14O2 (stereo partly specified): 1.02
CCCCCCCCC(=O)NCc1ccc(O)c(OC)c1: 0.981
O=C1NCC2(CCN(CCc3ccccc3)CC2)O1: 1

Prompt line: For COC(=O)C[C@H]1C2(C)CC34OC5(C)O[C@@]6([C@H](OC(C)=O)C(OC(C)=O)[C@]7(C)C(/C(=C(/O)C(C)C)C(=O)O[C@H]7c7ccoc7)[C@@]6(O5)[C@H](OC(C)=O)[C@@]3(O)C2OC(=O)C(C)C)[C@]14C (stereo partly specified) , what is its reported normalized growth?
Response line: 0.992

Prompt line: Next molecule up: Cc1ccccc1C(OCCN(C)C)c1ccccc1 (stereo unspecified)
Response line: 1.01

Prompt line: Next molecule up: COc1ccc(C(=O)CC(=O)O)c2c1C=CC(C)(C)O2
Response line: 0.977

Prompt line: Next molecule up: c1ccc2c(c1)sc1ccccc12
Response line: 0.97

Prompt line: Next molecule up: COC(=O)CC1C2(C)CC34OC5(C)OC6(C7/C(=C(/O)C(C)C)C(=O)OC(c8ccoc8)C7(C)C(OC(=O)C(C)C)C(OC)C6(O5)C13C)C(OC)C4(OC)C2OC(C)=O (stereo unspecified)
Response line: 0.988

Prompt line: Next molecule up: O=c1cccc2ccc(O)c(O)c2c1O
Response line: 1.01

* * *

Assay: chemical genetic growth profiling, strain panel (AID 1159580);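 also: tested at 20 µM; growth read once vehicle control cultures reached saturation at 30 °C; 1 = growth at the plate median or of vehicle wells; lower values mean less growth of the strain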
Conditions: S. cerevisiae deletion strains, growth OD, locus YLR342W, strain FKS1 (second series)
In all, about 5,500 compounds went through this assay and about 2,000 (36%) were called active. Inconclusive results (about 18%) are left out. No stated cut-off is given here; in the data, active means normalized growth mostly below about 0.91 (no sharp cut-off); inconclusive means no clear call, values can overlap the other calls; inactive means mostly above about 0.92. Some of the results follow.
Allowed answers: active, inactive

Prompt line: Could you check what this test reported for O=C(O[C@@H]1Cc2c(O)cc(O)cc2O[C@@H]1c1cc(O)c(O)c(O)c1)c1cc(O)c(O)c(O)c1 ?
Response line: active

Prompt line: Next molecule up: NCCC(O)C(=O)NC1CC(N)C(OC2OC(CN)C(O)C(O)C2N)C(OC2OC(CO)C(O)C2O)C1O (configuration not stated)
Response line: inactive

Prompt line: Next molecule up: O=C(OCC(O)CO)c1ccccc1Nc1ccnc2cc(Cl)ccc12 (configuration not stated)
Response line: inactive

Prompt line: Next molecule up: CC(=O)Oc1cc(OC(C)=O)c2c(c1)O[C@H](c1ccc(OC(C)=O)c(OC(C)=O)c1)[C@@H](OC(C)=O)C2
Response line: inactive

Prompt line: Next molecule up: O=C(Oc1cc(OC(=O)c2ccccc2)c2c(c1)O[C@H](c1ccc(OC(=O)c3ccccc3)c(OC(=O)c3ccccc3)c1)[C@@H](OC(=O)c1ccccc1)C2)c1ccccc1
Response line: inactive

Prompt line: Next molecule up: CCN(CC)Cc1ccc(Nc2ccnc3cc(Cl)ccc23)cc1O
Response line: inactive

Prompt line: Next molecule up: O=C(Oc1cc(O)cc2c1C[C@@H](OC(=O)c1cc(O)c(O)c(O)c1)[C@@H](c1cc(O)c(O)c(O)c1)O2)c1cc(O)c(O)c(O)c1
Response line: active
